Hi there, I'd appreciate the recorded EC50, CreLuc reporter, 0.5% hP for every entry that follows.
Target: T1, human neuropeptide Y2 receptor (human, UniProt P49146 1-381)
T1 sequence (looked up): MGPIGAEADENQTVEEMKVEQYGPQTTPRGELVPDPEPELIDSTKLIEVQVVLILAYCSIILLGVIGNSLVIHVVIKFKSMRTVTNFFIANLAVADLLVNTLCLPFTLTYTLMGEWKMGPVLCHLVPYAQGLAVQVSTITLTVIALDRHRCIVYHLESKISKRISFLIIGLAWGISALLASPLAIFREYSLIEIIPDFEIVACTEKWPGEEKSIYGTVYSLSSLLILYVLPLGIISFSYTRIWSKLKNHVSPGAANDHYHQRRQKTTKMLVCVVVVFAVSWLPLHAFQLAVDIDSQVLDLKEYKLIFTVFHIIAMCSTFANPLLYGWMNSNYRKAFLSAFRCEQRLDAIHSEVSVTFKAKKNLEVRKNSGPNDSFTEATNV
Assay: cell-based or functional assay
*1 amine or outer side, *2 acyl side, *3 side chain or, on linkers, in order; H or OH if unused. Where no end group is shown, it is not given here. Side-chain parts run from the residue outwards. [ ]: non-standard residue; d: D form. The star is where a group is joined. C20 diacid = O=C(O)CCCCCCCCCCCCCCCCCCC(=O)*; γGlu = O=C(O)[C@H](CCC(=O)[*:2])N[*:1]; Aib = CC(C)(N)C(=O)O
Report only the number, with the unit nM understood.

Request the reported EC50, CreLuc reporter, 0.5% hP associated with YXEGTFTSDYSIXLEKQAQXAFVRHLINKXTRQRY (Aib at 2, 13, 20, 30; Lys29 epsilon-amino acylated with C18DA-gGlu-gGlu-gGlu-gGlu-gGlu-AHX; C-terminal amide) [Compound 13] 18.7

What EC50, CreLuc reporter, 0.5% hP value was documented for this binder, YXEGTFTSDYSIXLEKAAQXAFVRHLINKXTRQRY (Aib at 2, 13, 20, 30; Lys29 epsilon-amino acylated with C20DA-gGlu-gGlu-gGlu-gGlu-gGlu-gGlu-eLys; C-terminal amide) [Compound 4] ? 17.7

Give the measured EC50, CreLuc reporter, 0.5% hP of Y[Aib]EGTFTSDYSI[Aib]LEKQAQ[Aib]AFVRHLINK([γGlu-γGlu-γGlu-γGlu-γGlu-γGlu-C20 diacid])[Aib]TRQRY-NH2 [Compound 3] . 37.9
